Assay: GSK_TCMDC: Inhibition Frequency Index (IFI). The number of non-kinase HTS assays where a compound showed > 50 % inhibition, expressed as a percentage of the number of such assays in which the compound was tested
Type: functional
Over roughly 13,000 compounds, “IFI” has its median near 4; the highest 2% begin near 17. The sample holds the highest values, similar compounds and a random draw of the others, so the mix is not that of the screen.
Exam item: assign T to entries whose IFI is below 10% and F to entries at or above 10%. Note that a value of exactly 10% receives F.

[[record]]
compound = "Cc1ccccc1CCNC(=O)c1cnc(N2CCN(c3ccncc3)CC2)c(Cl)c1"
label_value = "F"

[[record]]
compound = "NCCCN(Cc1ccc(Cl)c(Cl)c1)C(=O)Nc1ccc(Cl)c(Cl)c1"
label_value = "F"

[[record]]
compound = "CCCCNc1c(C(=O)OCC)c(C)nc2c1[nH]c1ccccc12"
label_value = "T"

[[record]]
compound = "CCCOc1ccc(CCNCCCCNCCc2ccc(OCCC)c3ccccc23)c2ccccc12"
label_value = "F"

[[record]]
compound = "NCCNc1ccc([N+](=O)[O-])cc1C(=O)Nc1cccc(C(F)(F)F)c1"
label_value = "T"

[[record]]
compound = "CCC(C)c1ccc(Nc2nc(C)cc(N(CC)CCCN3CCCCC3)n2)cc1 (stereo unspecified)"
label_value = "F"

